# Test system: Bacillus subtilis Wild type
# Measurement notes: Microbiological challenge testing in BPW broth, graded subculture counts
# Format: cell-based
# Details: 2.5% weight/volume; 30 day
Property: B. subtillis growth grade, 30 day

- OCC1CCCCC1CO (stereo not shown): 0
- O=C([O-])CN(CCN(CC(=O)[O-])CC(=O)O)CC(=O)O.[Na+].[Na+]: 0

* * *

# Test system: Streptococcus mutans ATCC 35668
# Measurement notes: Microbiological challenge testing in BPW broth, graded subculture counts
# Format: cell-based
# Details: 2.5% weight/volume; 30 day
# Protocol: The microorganisms in the table below were used in challenge tests. They were either ATCC (American Type Culture Collection) or “wild type” as indicated. Wild type organisms were problematic organisms previously isolated from chemical products. […] After incubation for at least 48 hours, colonies that had developed on the agar plates were counted (CFU) and recorded with the corresponding dilution. […]
Property: S. mutans growth grade, 30 day

* CC1(C)C(O)C(C)(C)C1O (stereo not shown) | 0
* OCC1CCC(CO)CC1 (stereo not shown) | 0
* O=C([O-])CN(CCN(CC(=O)[O-])CC(=O)O)CC(=O)O.[Na+].[Na+] | 0
* OCC1CCCCC1CO (stereo not shown) | 0
